Just for reference, the supplement of paper PMC10266784 is where these values come from.

Below, each of the variants is paired with its reported SGCB cell-surface expression functional score (log10) value.
B1: library; numbered along this chain (parent)
chain: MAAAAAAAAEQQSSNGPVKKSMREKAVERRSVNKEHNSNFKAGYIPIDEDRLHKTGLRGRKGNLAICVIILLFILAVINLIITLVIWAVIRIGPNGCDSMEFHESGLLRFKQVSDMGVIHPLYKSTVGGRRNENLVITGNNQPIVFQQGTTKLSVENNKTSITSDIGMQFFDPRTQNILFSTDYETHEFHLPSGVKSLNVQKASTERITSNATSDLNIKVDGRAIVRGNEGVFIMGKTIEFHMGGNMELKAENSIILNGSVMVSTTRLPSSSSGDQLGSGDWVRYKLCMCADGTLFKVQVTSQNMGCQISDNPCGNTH

Variants of: B1
test.method.notes: SGCB cell-surface expression functional score (HA stain, bin4 vs bin1, normalised to synonymous) (log10 ratio); higher = more cell-surface SGCB (functional)
reported.metric: SGCB cell-surface expression functional score (log10)

1. R51V = 0.39
2. R223Q = 0.48
3. C288M = -1.54
4. A26M = 0.77
5. M247D = -1.1
6. R51Y = 0.17
7. S114A = 0.55
8. L191I = -0.16
9. D215G = -0.26
10. N95V = -0.38
11. M262Y = 0.79
12. A291C = -0.42
13. A224W = -1.5
14. I82F = 0.01
15. T126E = 0.37
16. M247L = 0.8
17. Q308G = -0.76
18. D221K = 0.13
19. L75M = 0.77
20. P94V = -0.24
21. S272Q = 0.34
22. E188M = -2.13
23. D221C = -0.33
24. S214I = -0.69
25. V283K = 0.04
26. I82S = -0.18
27. R109K = -0.59
28. V18F = 0
29. K111Y = -0.7
30. V85K = 0.01
31. S271V = 0.17
32. W87T = -0.05
33. Q176E = 0.27
34. A291R = 0.01
35. Q12K = 0.02
36. K61G = 0.03
37. S279M = 0.56
38. T182M = -1.87
39. A9E = 0.28
40. Q176G = 0.46
41. F241L = 0.35
42. F146W = -1.15
43. A2K = 0.23
44. L108R = -1.09
45. S210E = -1.75
46. A42V = -0.08
47. P192Y = -1.09
48. E24P = 0
49. I208Y = -2.38
50. R58A = 0.08
51. L72M = 0.13
52. V145W = -0.57
53. V77W = -0.2
54. Q169S = 0.27
55. S114T = -0.37
56. G96Y = -2.29
57. S13N = 0.08
58. E240M = 1.09
59. D50R = 0.28
60. N211Y = 0
61. K297C = -0.07
62. V127W = -1.36
63. D48T = -0.04
64. R207T = -0.69
65. L179K = 0.28
66. H190I = -0.36
67. E49V = 0.12
68. V118M = -0.05
69. G139V = -1.28
70. M247E = -0.44
71. E156D = -0.04
72. N132F = -0.11
73. V195G = -1.83
74. L75W = 0.39
75. G228T = -0.37
76. S272F = 0.1
77. T175V = -0.16
78. D281R = -0.24
79. N253T = 0.39
80. R91S = -0.79
81. Q169P = -1.46
82. V77N = -0.21
83. H190E = -0.09
84. N217Q = 0.77
85. N229A = 0.8
86. I78H = 0.1
87. L277H = 0.19
88. T182K = -0.75
89. S164A = -0.39
90. D275W = -0.16
91. L191V = -0.49
